- Measurement Target: Factor Xa (#1063-SE-010, R&D Systems) (UniProt P00742 41-488, limits assumed)
- Sequence (P00742 41-488 limits assumed): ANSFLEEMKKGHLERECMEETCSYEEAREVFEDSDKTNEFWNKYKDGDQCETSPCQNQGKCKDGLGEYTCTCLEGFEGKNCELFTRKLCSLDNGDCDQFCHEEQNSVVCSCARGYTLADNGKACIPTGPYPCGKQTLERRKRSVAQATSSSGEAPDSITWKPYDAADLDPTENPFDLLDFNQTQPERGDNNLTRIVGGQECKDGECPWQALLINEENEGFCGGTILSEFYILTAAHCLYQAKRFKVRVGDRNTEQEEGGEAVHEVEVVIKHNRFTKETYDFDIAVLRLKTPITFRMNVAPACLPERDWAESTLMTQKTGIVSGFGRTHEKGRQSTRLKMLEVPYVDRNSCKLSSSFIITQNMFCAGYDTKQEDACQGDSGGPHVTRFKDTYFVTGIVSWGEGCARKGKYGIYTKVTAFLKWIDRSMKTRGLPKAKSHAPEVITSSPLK
- Measurement Description: cell-based or functional assay
Positions of bridges follow the written chain, without caps; N, C: chain ends. kbt = C-terminal Arg ketobenzothiazole

Binder | Factor Xa* (IC50 nM)
Ac-DMKR-kbt (lactam 1-3; not fully specified; printed as Cyclo(DMK)R-kbt; also: N-terminal acetyl described as 6-acetamido) [Cyclo(DMK)R-kbt, VD3173] | 1400 nM
Ac-MQFR-kbt [MM3130 Ac-MQFR-kbt] | 342 nM
Ac-IQFR-kbt [MM3116 Ac-IQFR-kbt] | 792 nM
